B1: Homeobox protein cut-like 1, residues 941 to 1008; numbered along this chain, P39880 (parent)
chain: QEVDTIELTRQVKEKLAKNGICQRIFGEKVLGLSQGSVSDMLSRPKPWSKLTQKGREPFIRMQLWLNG

Variants of: B1
Experiment: abundance fitness (aPCA) (normalised: wild type 0, dead -1); higher = more abundant; growth selection in yeast, the domain comes from the species named
Conditions: Homo sapiens
Overview of reported abundance fitness across a group of variants:
Answer as a number with no unit attached.

Answered examples (6):
L16M
0.107
G20P
-0.141
S49K
0.029
E14H
-0.498
C22H
-0.006
E2L
-0.376

Quick check: abundance fitness of S37Y ?
-0.173

Please give the result for S49Y too.
-0.255

Please give the result for P45S too.
-0.063

Please give the result for K18I too.
-0.085

Please give the result for G27V too.
-0.231
